# System: murine-derived macrophage (NR-9456)
# experimentDescription: Cell toxicity assay
# Format: cell-based
# testContext: Mus musculus, Macrophage, 24 h, read-out: NR-9456 IC50

{"compound": "CCc1nc(N)nc(N)c1-c1ccc(Cl)cc1 [Pyrimethamine, reference compound]", "IC50": "> 100 µM"}

---

# System: T. gondii PRU-dTom
# experimentDescription: T. gondii PRU-dTom
# Format: cell-based
# testContext: Toxoplasma gondii, 120 h, read-out: T. gondii PRU-dTom IC50
pIC50: −log10 of the molar value.
measurementLabel: pIC50

{"compound": "CCc1nc(N)nc(N)c1-c1ccc(Cl)cc1 [Pyrimethamine, reference compound]", "systemName": "T. gondii PRU-dTom", "measurementLabel": "pIC50", "valueObserved": 6.10}
